Would you mind telling me the reported pIC50 of each entry?
Test system: MCF7
Experiment: Antiproliferative activity in human MCF7 cells assessed as cell growth inhibition
Type: functional, cell-based
# pIC50 = -log10(concentration in molar units)

Fill in the blank: the reported pIC50 of CC(=O)Oc1ccccc1C1OC(c2ccncc2)=NN1C(C)=O (centres undefined) is ____. 4.30

Form field: reported pIC50 of Cc1ncc(-c2ccc3ccccc3c2)o1 5.34

Which pIC50 is listed for Cc1ncc(-c2cccnc2)o1 ? 5.34

I am curious: what pIC50 value has been reported for Cc1ncc(-c2cnc3ccccc3c2)o1 ? 5.34

----------
Test system: HCT-116
Assay: Antiproliferative activity in human HCT-116 cells assessed as cell growth inhibition measured after 72 hrs by SRB assay
Type: functional, cell-based
Conditions: HCT-116, 72 h
property: IC50 (nM)
Respond with the bare value in nM.

Quick one: IC50 of COC(CC1OC(=O)CC(O)C/C=C/C(=O)C(C)C(OC)c2coc(n2)-c2coc(n2)-c2coc(n2)/C=C\CCC1C)C(C)CCC(=O)C(C)C(C/C=C/N(C)C=O)OC (stereo unspecified) ? 73
